Hey, just so you know, these numbers are from ChEMBL document CHEMBL3867485.

Assay details: Inhibition of wild-type HIV1 3B reverse transcriptase infected in human MT2 cells assessed as protection against viral infection by MTT assay
Type: cell-based
Conditions: Human immunodeficiency virus 1, 3B
API: label(entry) gives true if the entry's EC50 is strictly smaller than 20 nM; on equality or larger values it gives false.

>  <Test smiles>
Cc1c(Oc2ccccc2OCCn2ccc(=O)[nH]c2=O)cc(CC2CC2)c2ccc(C#N)cc12

>  <Group label>
true

$$$$
>  <Test smiles>
Cc1c(Oc2ccc(F)cc2OCCn2ccc(=O)[nH]c2=O)cc(Cl)c2ccc(C#N)cc12

>  <Group label>
true

$$$$
>  <Test smiles>
N#Cc1ccc2c(F)cc(Oc3ccccc3OCCn3ccc(=O)[nH]c3=O)c(Cl)c2c1

>  <Group label>
true

$$$$
>  <Test smiles>
CCOc1cc(Oc2ccccc2OCCn2ccc(=O)[nH]c2=O)c(C)c2cc(C#N)ccc12

>  <Group label>
true

$$$$
>  <Test smiles>
N#Cc1ccc2ccc(Oc3ccccc3OCCn3ccc(=O)[nH]c3=O)cc2c1

>  <Group label>
false

$$$$
>  <Test smiles>
Cc1cc2ccc(C#N)cc2c(C)c1Oc1ccccc1OCCn1ccc(=O)[nH]c1=O

>  <Group label>
false

$$$$
>  <Test smiles>
Cc1c(Oc2ccc(F)cc2OCCn2ccc(=O)[nH]c2=O)cc(F)c2ccc(C#N)cc12

>  <Group label>
true

$$$$
>  <Test smiles>
N#Cc1ccc2c(Cl)cc(Oc3ccc(F)cc3OCCn3ccc(=O)[nH]c3=O)cc2c1

>  <Group label>
false

$$$$
>  <Test smiles>
N#Cc1cc2c(Oc3ccc(F)cc3OCCn3ccc(=O)[nH]c3=O)cc(F)cn2c1

>  <Group label>
true

$$$$
>  <Test smiles>
Cc1c(Oc2ccccc2OCCn2ccc(=O)[nH]c2=O)cc(F)c2ccc(C#N)cc12

>  <Group label>
true

$$$$
>  <Test smiles>
Cc1cc(Oc2ccccc2OCCn2ccc(=O)[nH]c2=O)cc2cc(C#N)ccc12

>  <Group label>
true

$$$$
>  <Test smiles>
CCCc1cc(Oc2ccccc2OCCn2ccc(=O)[nH]c2=O)c(C)c2cc(C#N)ccc12

>  <Group label>
false

$$$$
>  <Test smiles>
Cc1cc(Oc2ccc(F)cc2OCCn2ccc(=O)[nH]c2=O)c(F)c2cc(C#N)ccc12

>  <Group label>
false

$$$$
>  <Test smiles>
N#Cc1ccc2c(F)cc(Oc3ccc(F)cc3OCCn3ccc(=O)[nH]c3=O)c(Cl)c2c1

>  <Group label>
true

$$$$
>  <Test smiles>
Cc1cc(Oc2ccccc2OCCn2ccc(=O)[nH]c2=O)c(C)c2cc(C#N)ccc12

>  <Group label>
true

$$$$
>  <Test smiles>
Cc1cc(Oc2ccc(F)cc2OCCn2ccc(=O)[nH]c2=O)c(C)c2cc(C#N)ccc12

>  <Group label>
true

$$$$
>  <Test smiles>
Cc1cc(Oc2ccccc2OCCn2ccc(=O)[nH]c2=O)c(Cl)c2cc(C#N)ccc12

>  <Group label>
true

$$$$
>  <Test smiles>
Cc1c(Oc2ccccc2OCCn2ccc(=O)[nH]c2=O)cc(Cl)c2ccc(C#N)cc12

>  <Group label>
true

$$$$
>  <Test smiles>
N#Cc1ccc2ccc(Oc3ccc(F)cc3OCCn3ccc(=O)[nH]c3=O)cc2c1

>  <Group label>
false

$$$$
>  <Test smiles>
Cc1c(Oc2ccc(Cl)cc2OCCn2ccc(=O)[nH]c2=O)cc(F)c2ccc(C#N)cc12

>  <Group label>
true

$$$$
>  <Test smiles>
COCc1cc(Oc2ccccc2OCCn2ccc(=O)[nH]c2=O)c(C)c2cc(C#N)ccc12

>  <Group label>
true

$$$$
>  <Test smiles>
Cc1c(Oc2ccccc2OCCn2ccc(=O)[nH]c2=O)c(C)c2cc(C#N)ccc2c1C

>  <Group label>
false

$$$$
>  <Test smiles>
CCc1cc(Oc2ccccc2OCCn2ccc(=O)[nH]c2=O)c(C)c2cc(C#N)ccc12

>  <Group label>
true

$$$$
>  <Test smiles>
Cc1c(Oc2ccccc2OCCn2ccc(=O)[nH]c2=O)cc(C(C)C)c2ccc(C#N)cc12

>  <Group label>
true

$$$$
>  <Test smiles>
COc1cc(Oc2ccccc2OCCn2ccc(=O)[nH]c2=O)c(C)c2cc(C#N)ccc12

>  <Group label>
true

$$$$
>  <Test smiles>
N#Cc1ccc2c(Cl)cc(Oc3ccccc3OCCn3ccc(=O)[nH]c3=O)cc2c1

>  <Group label>
true

$$$$
>  <Test smiles>
N#Cc1ccc2cc(Oc3ccccc3OCCn3ccc(=O)[nH]c3=O)ccc2c1

>  <Group label>
false

$$$$
